# Assay target: T1, PUF4 RNA-binding domain (Saccharomyces cerevisiae, UniProt P25339 537-888)
# T1 sequence: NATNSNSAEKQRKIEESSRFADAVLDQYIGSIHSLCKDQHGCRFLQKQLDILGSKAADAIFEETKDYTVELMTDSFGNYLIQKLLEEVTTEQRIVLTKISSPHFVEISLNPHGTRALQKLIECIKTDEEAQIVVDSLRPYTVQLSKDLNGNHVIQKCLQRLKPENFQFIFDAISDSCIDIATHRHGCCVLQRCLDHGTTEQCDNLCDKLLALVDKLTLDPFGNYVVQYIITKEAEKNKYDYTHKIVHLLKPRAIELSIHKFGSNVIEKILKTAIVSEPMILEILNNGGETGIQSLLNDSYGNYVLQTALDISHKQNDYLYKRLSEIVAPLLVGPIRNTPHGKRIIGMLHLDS
# Assay details: Mg; RNA-MaP; 20 mM Na-HEPES pH 7.4, 30 mM KOAc, 0.75 mM MgCl2, 0.1% Tween-20, 5% glycerol, 0.1 mg/mL BSA, 2 mM DTT; 25 C; 0.0125-409.6 nM protein
# Details: tags: N-His6-TEV cleaved; C-SNAP kept, Cy3B-labelled; label: tethered on chip by stalled RNA polymerase
Consider the following binders and their measured Kd readings.
Report only the number, with the unit nM understood.

Known Kd results, listed for orientation:
>>> reading("Ib_S2_P4E.1_K4.1_C4.1_H4.1_A4.1_[T5A]_F4.1_[T8A]_T4.1 (ssRNA) RNA: UUUGAUUAAUAUGAUAUCGUUCUUUCUUGUAAAUAAUUCUUUCUCGAUAUCAUAUUAAUCUUU")
13.5
>>> reading("Ic_S2_P3E.1_K3.1_C3.1_H3.1_A3.1_[T5A]_[A6T]_F3.1_[T7A]_[A8T]_T3.1 (ssRNA) RNA: UUUGAUUAAUAUGAUAUCGUUCUUUCUUGUAAUAUUUCUUUCUCGAUAUCAUAUUAAUCUUU")
11.6
>>> reading("ACAAACUGUAUUAUUCCUCUAACAAAC (ssRNA) [Ie_S3_P5E.1_K5.1_C5.1_H5.1_A5.1_F5.1_[+9CCTCT]_T5.1]")
20.7
>>> reading("UCUCUUUGUACCUUAUCUCUU (ssRNA) [Ib_S1_P4E.1_K4.1_C4.1_H4.1_A4.1_[T5C]_[A6C]_F4.1_T4.1]")
3.61
>>> reading("UCUCUUUGUUUAUUUCUCUU (ssRNA) [Ib_S1_P3E.1_K3.1_C3.1_H3.1_[A4T]_A3.1_F3.1_[A8T]_T3.1]")
426

Here is the next item to consider.
Reported Kd ( UCUCUUCUUGUACUCUUAUAUAUCUCUU (ssRNA) [Ie_S1_P3E.2_K3.1_C3.2_H3.1_[+4CTCT]_A3.1_F3.1_T3.2] ) = 9.53

Hey, just so you know, these numbers are from paper PMC9352680.
